measured on: T1, human TIGIT protein (human, UniProt Q495A1 22-141, limits assumed)
T1 construct: Recombinant protein (Genentech) used in ELISA screening and as SPR analyte; also called TIGIT antigen
T1 sequence: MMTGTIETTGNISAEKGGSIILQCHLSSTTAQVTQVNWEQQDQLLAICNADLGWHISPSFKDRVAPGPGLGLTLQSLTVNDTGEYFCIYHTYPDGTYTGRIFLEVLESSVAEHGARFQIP
assay explanation: SPR, captured mAb
For each entry below, report its pKd value.
Numbers only, as −log10 of the molar value.

Worked set:
Determine its reported pKd: 4.1A4 (antibody, V domains shown, OMT rat-derived human antibody; also called 4.1A4.Q1.C96) VH: QVQLVQSGSELKKPGASVKVSCKASGYTLTNYPMNWVRQAPGRGLEWMGWINTNTGSPAYAQDFTERFVFSLDTSVTTAYLQISSLKAEDTAVYYCARTAITSVYHFDYWGQGTLVTVSS VL: DIQLTQSPSFLSASVGDRVTITCRASQGISSYLAWYQQKPGKAPRVLIYGATTLQSGVPSRFSGSESGTEFTLTISSLQPEDLATYYCQKLNSHPCSFGQGTKVEIK 8.45

Determine its reported pKd: 7.4A3.C96Y.Q1E (antibody, V domains shown, No entry is tied to this variant by name; built from 7.4A3 with the two named changes (Q1E in the heavy chain, C96Y in HVR-L3); also called 7.4A3.Q1E.C96Y) VH: EVQLVQSGSDLKKPGASVRVSCKASGYTFTSYPMNWVRQAPGHGLEWMGWINTNTGNPTYVQGFTGRFVFSLDTSVNTAYLQISSLKAEDTAVYFCARTGGHTYDSYAFDVWGQGTMVTVSS VL: DIQLTQSPTFLSASVGDRVTITCRASQVISSSLAWYQQNPGKAPKLLIYAASTLQSGVPSRFSGSGSGTEFTLTISSLQPEDFVTYYCQHLHGYPYNFGQGTKVEIK 7.01

Determine its reported pKd: 7.4A3 (antibody, V domains shown, OMT rat-derived human antibody; also called 7.4A3.Q1.C96) VH: QVQLVQSGSDLKKPGASVRVSCKASGYTFTSYPMNWVRQAPGHGLEWMGWINTNTGNPTYVQGFTGRFVFSLDTSVNTAYLQISSLKAEDTAVYFCARTGGHTYDSYAFDVWGQGTMVTVSS VL: DIQLTQSPTFLSASVGDRVTITCRASQVISSSLAWYQQNPGKAPKLLIYAASTLQSGVPSRFSGSGSGTEFTLTISSLQPEDFVTYYCQHLHGYPCNFGQGTKVEIK 8.46

Shifting focus to the binder that follows.
Determine its reported pKd: 7.4A3.C96S.Q1E (antibody, V domains shown, also called 7.4A3.Q1E.C96S) VH: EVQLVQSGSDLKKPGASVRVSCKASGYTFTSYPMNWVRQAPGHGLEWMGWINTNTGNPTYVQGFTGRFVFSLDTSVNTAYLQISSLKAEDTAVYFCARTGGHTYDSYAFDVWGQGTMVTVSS VL: DIQLTQSPTFLSASVGDRVTITCRASQVISSSLAWYQQNPGKAPKLLIYAASTLQSGVPSRFSGSGSGTEFTLTISSLQPEDFVTYYCQHLHGYPSNFGQGTKVEIK 8.53

Origin of the recorded values: patent US20220064286A1
